// reported LC50 at 48 h for each item listed
# Method summary: Anti-larval settlement bioassay (antifouling activity and larval toxicity)
# Assay type: in vivo
# Test settings: Balanus (Amphibalanus) amphitrite (barnacle cyprid larvae), in vivo, other: larvae immersed in test solution; cyprids of B. amphitrite, 48 h at 28 °C, concentration where 50% of larvae were dead
Assay metric: LC50 at 48 h (µM)

Smiles repr	Assay metric	Qualifier symbol	Numeric result
CC(=O)Oc1cc(C)cc(Oc2cc(C)cc(OC(C)=O)c2)c1	LC50 at 48 h	=	49.4
C/C(=C\[C@H](O)C[C@@H](C)CCCc1ccoc1)CCCc1ccoc1	LC50 at 48 h	=	153
COc1cc(C)cc(Oc2cc(C)cc(O)c2)c1	LC50 at 48 h	>	205
CCCOc1cc(C)cc(Oc2cc(C)cc(O)c2)c1	LC50 at 48 h	=	112
CC(=O)Oc1cc(C)cc(Oc2cc(C)cc(O)c2)c1	LC50 at 48 h	=	64.3
Cc1cc(O)cc(Oc2cc(C)cc(O)c2)c1	LC50 at 48 h	>	217
COC(=O)c1c(C)cc(Oc2cc(C)cc(O)c2)cc1O	LC50 at 48 h	>	174
Cc1cc(O)cc(Oc2cc(C)cc(OC(=O)c3ccc(Br)cc3)c2)c1	LC50 at 48 h	=	60.5
Cc1cc(O)cc(Oc2cc(C)cc(OC(=O)c3ccccc3)c2)c1	LC50 at 48 h	>	150
COc1cc(C)cc(Oc2cc(C)cc(OC)c2O)c1O	LC50 at 48 h	>	172
CCCCCOc1cc(C)cc(Oc2cc(C)cc(O)c2)c1	LC50 at 48 h	>	167
Cc1cc(C=O)c2c(C)ccc(C(C)C)cc1-2	LC50 at 48 h	=	221
COc1cc(C)cc(Oc2cc(C)cc(OC)c2OC)c1O	LC50 at 48 h	>	164
Cc1cc(C=O)c2c(C)cc3c(cc1-2)[C@@H](C)CO3	LC50 at 48 h	=	208
CC1=CC(=O)c2c(C)cc3oc(=O)c(C)c-3cc21	LC50 at 48 h	>	208
Cc1cc(O)cc(Oc2cc(C)cc(O)c2O)c1	LC50 at 48 h	>	203
CCCCCOc1cc(C)cc(Oc2cc(C)cc(OCCCCC)c2)c1	LC50 at 48 h	>	135
